From: ChEMBL document CHEMBL3085713

tested on: Radical scavenging activity; experiment: Antioxidant activity assessed as DPPH free radical scavenging activity after 30 mins by spectrophotometry; format: functional
ASSAY METRIC: IC50 (µM)

Example entries begin here.
{"COMPOUND": "COc1ccc(C2COc3cccc4c3N2CCC4)cc1OC (stereo not given)", "IC50 [µM]": 75.5}
{"COMPOUND": "c1cc2c3c(c1)OCC(c1ccc4c(c1)OCO4)N3CCC2 (stereo not given)", "IC50 [µM]": 78.3}
{"COMPOUND": "c1cc2c3c(c1)OCC(c1ccc4ccccc4c1)N3CCC2 (stereo not given)", "IC50 [µM]": 98.3}
{"COMPOUND": "COc1ccccc1C1COc2cccc3c2N1CCC3 (stereo not given)", "IC50 [µM]": 45.4}
{"COMPOUND": "O=C1O[C@H]([C@@H](O)CO)C(O)=C1O", "IC50 [µM]": 49.7}

P: c1csc(C2COc3cccc4c3N2CCC4)c1 (stereo not given)
Q: Cc1ccc(C2COc3cccc4c3N2CCC4)cc1 (stereo not given)
Lab log: flag the item ( P or Q ) with the smaller IC50 figure. Reply with the label of the item you choose.
P
(P: 56.3 µM, Q: 98.4 µM)

1: c1ccc(C2COc3cccc4c3N2CCC4)cc1 (stereo not given)
2: Nc1ccc(C2COc3cccc4c3N2CCC4)cc1 (stereo not given)
For the two items 1 and 2 , which reports the higher IC50 value? Field: selected label. Fill in the label of the entry you choose.
1

I: c1cc2c3c(c1)OCC(c1cccc4ccccc14)N3CCC2 (stereo not given)
II: COc1cccc(C2COc3cccc4c3N2CCC4)c1 (stereo not given)
// max by IC50 over [ I , II ] Lab log: write the label of the selected item as the result.
I

A: Nc1cccc(C2COc3cccc4c3N2CCC4)c1 (stereo not given)
B: CC1Oc2cccc3c2N(CCC3)C1c1ccccc1 (stereo not given)
Lower IC50: A or B ? In your reply, give the label of the chosen option.
A
(A: 52.3 µM, B: 95.4 µM)
